The molecules listed here are annotated with their Th-T fluorescence, mean of three wells.
- STUDY SYSTEM: Aβ42 (Homo sapiens, UniProt P05067)
- Sequence (P05067 672-713): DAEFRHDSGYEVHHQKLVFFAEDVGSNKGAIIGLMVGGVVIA
- PROCEDURE SUMMARY: Th-T (thioflavin-T) assay of Aβ42 aggregation
- Type: biochemical
- CONDITION INFO: Aβ42 aggregation time course, reading M132
Number only, no unit.

MOLECULE	Th-T fluorescence, mean of three wells
C=C1CCC2C(C)(CC(=O)C=C(C)C)C(O)CCC2(C)C1Cc1c(OC)oc(CO)c(C)c1=O (stereo not shown)	3.652
C=C1CCC2C(C)(CC(=O)C=C(C)C)C(O)CCC2(C)C1Cc1c(O)c(C)c(C)oc1=O (stereo not shown)	3.446
C=C1CC[C@H]2[C@]3(C)C[C@H](C=C(C)C)O[C@H]3CC[C@]2(C)[C@@H]1Cc1c(O)c(C)c(C)oc1=O	3.01
C=C1CC[C@H]2[C@]3(C)C[C@H](C=C(C)C)O[C@H]3CC[C@]2(C)[C@@H]1Cc1c(OC)oc(C)c(C)c1=O	3.865
C=C1CC[C@H]2[C@]3(C)C[C@@H](C=C(C)C)O[C@H]3CC[C@]2(C)[C@@H]1Cc1c(O)c(C)c(C)oc1=O	2.65

Please give measured Th-T fluorescence, mean of three wells of the following entry: C=C1CCC2C(C)(CC(=O)C=C(C)C)C(O)CCC2(C)C1Cc1c(OC)oc(C)c(C)c1=O (stereo not shown)
3.554

* * *

- STUDY SYSTEM: UniProt P05067
- PROCEDURE SUMMARY: Th-T (thioflavin-T) assay of Aβ42 aggregation
- Assay type: biochemical
- CONDITION INFO: column suffix _20; reading M99
REPORTED ENDPOINT: Fig. 7a Th-T reading, mean of three wells
Kindly provide the number alone.

As a guide, the following entries are already answered.
COMPOUND	READOUT NUMBER
C=C1CC[C@@H]2[C@](C)(CC[C@H]3O[C@H](C=C(C)C)C[C@@]23C)[C@@H]1Cc1c(OC)oc(CO)c(C(=O)OC)c1=O	0.9153
C=C1CCC2C(C)(CCC=C(C)C)C(O)CCC2(C)C1Cc1c(OC)oc(CO)c(C)c1=O (centres unmarked)	2.135
C=C1CCC2C(C)(CCC=C(C)C)C(O)CCC2(C)C1Cc1c(OC)oc(C)c(C(=O)OC)c1=O (centres unmarked)	1.789
C=C1CC[C@@H]2[C@](C)(CC[C@H]3O[C@H](C=C(C)C)C[C@@]23C)[C@@H]1Cc1c(OC)oc(CO)c(C)c1=O	3.3

Next item in the queue.
Supply reported Fig. 7a Th-T reading, mean of three wells belonging to this compound: C=C1CCC2C(C)(CCC=C(C)C)C(O)CCC2(C)C1Cc1c(OC)oc(CO)c(C(=O)OC)c1=O (centres unmarked)
1.051

* * *

- STUDY SYSTEM: UniProt P05067
- PROCEDURE SUMMARY: Th-T (thioflavin-T) assay of Aβ42 aggregation
- Format: biochemical
- CONDITION INFO: Supplementary Fig. 47 source data; measurement M47 of time course
REPORTED ENDPOINT: Th-T fluorescence, mean of three wells
Could you respond with only the numeric value?

Example entries and their recorded answers appear below.
COMPOUND	STUDY SYSTEM	Th-T fluorescence, mean of three wells
C=C1CC[C@H]2[C@]3(C)C[C@H](C=C(C)C)O[C@H]3CC[C@]2(C)[C@@H]1Cc1c(O)c(C)c(C)oc1=O	UniProt P05067	3.097
C=C1CCC2C(C)(CC(=O)C=C(C)C)C(O)CCC2(C)C1Cc1c(OC)oc(C)c(C)c1=O (stereo not drawn)	UniProt P05067	3.73
C=C1CCC2C3(C)CC(C=C(C)C)OC3CCC2(C)C1Cc1c(OC)oc(C)c(C)c1=O (stereo not drawn)	UniProt P05067	4.0057
C=C1CC[C@H]2[C@]3(C)C[C@H](C=C(C)C)O[C@H]3CC[C@]2(C)[C@@H]1Cc1c(OC)oc(CO)c(C)c1=O	UniProt P05067	3.912

Entry "CC(C)=CCC/C(C)=C/CC/C(C)=C/CC/C(C)=C/Cc1c(O)c(C)c(C)oc1=O" needs its Th-T fluorescence, mean of three wells filled in; supply it.
2.867

Consider the compound C=C1CCC2C(C)(CC(=O)C=C(C)C)C(O)CCC2(C)C1Cc1c(O)c(C)c(C)oc1=O (stereo not drawn) and give its recorded Th-T fluorescence, mean of three wells.
3.602

Report Th-T fluorescence, mean of three wells, nothing else, for this compound: "C=C1CC[C@H]2[C@]3(C)C[C@@H](C=C(C)C)O[C@H]3CC[C@]2(C)[C@@H]1Cc1c(OC)oc(CO)c(C)c1=O"
3.465

Identify Th-T fluorescence, mean of three wells associated with the compound C=C1CCC2C(C)(CC(=O)C=C(C)C)C(O)CCC2(C)C1Cc1c(OC)oc(CO)c(C)c1=O (stereo not drawn)
3.542

Give Th-T fluorescence, mean of three wells for the following compound: "C=C1CC[C@H]2[C@]3(C)C[C@@H](C=C(C)C)O[C@H]3CC[C@]2(C)[C@@H]1Cc1c(O)c(C)c(C)oc1=O"
2.664

Provide measured Th-T fluorescence, mean of three wells value, entry: C=C1CCC2C(C)(CCC=C(C)C)C(=O)CCC2(C)C1Cc1c(O)c(C)c(C)oc1=O (stereo not drawn)
2.191

Name the recorded Th-T fluorescence, mean of three wells of the compound listed here: "C=C1CC[C@H]2[C@]3(C)C[C@H](C=C(C)C)O[C@H]3CC[C@]2(C)[C@@H]1Cc1c(OC)oc(C)c(C)c1=O"
4.139

Name the recorded Th-T fluorescence, mean of three wells of the compound listed here: "C=C1CC[C@@H]2[C@](C)(CC[C@H]3O[C@H](C=C(C)C)C[C@@]23C)[C@@H]1Cc1c(O)c(C)c(C)oc1=O"
3.097

* * *

- STUDY SYSTEM: Aβ42 (Homo sapiens)
- PROCEDURE SUMMARY: Th-T (thioflavin-T) assay of Aβ42 aggregation
- Type: biochemical
- CONDITION INFO: time-course reading M106; Supplementary Fig. 47 source data
REPORTED ENDPOINT: Th-T fluorescence, mean of three wells
Write the number on its own, no unit after it.

Dear colleague, please send me the reported Th-T fluorescence, mean of three wells for C=C1CCC2C(C)(CCC=C(C)C)C(O)CCC2(C)C1Cc1c(OC)oc(CO)c(C)c1=O (centres unmarked) when you can.
2.067

Identify Th-T fluorescence, mean of three wells associated with the molecule "C=C1CC[C@@H]2[C@](C)(CC[C@H]3O[C@H](C=C(C)C)C[C@@]23C)[C@@H]1Cc1c(O)c(C)c(C)oc1=O"
3.028

Give Th-T fluorescence, mean of three wells for the following molecule: "C=C1CC[C@@H]2[C@](C)(CC[C@H]3O[C@H](C=C(C)C)C[C@@]23C)[C@@H]1Cc1c(OC)oc(CO)c(C(=O)OC)c1=O"
1.044

Identify Th-T fluorescence, mean of three wells associated with the molecule C=C1CCC2C(C)(CCC=C(C)C)C(O)CCC2(C)C1Cc1c(OC)oc(CO)c(C(=O)OC)c1=O (centres unmarked)
1.044

Given the molecule "C=C1CC[C@H]2[C@]3(C)C[C@@H](C=C(C)C)O[C@H]3CC[C@]2(C)[C@@H]1Cc1c(O)c(C)c(C)oc1=O" , write its reported Th-T fluorescence, mean of three wells.
2.676

* * *

- STUDY SYSTEM: Aβ42 (Homo sapiens, UniProt P05067)
- PROCEDURE SUMMARY: Th-T (thioflavin-T) assay of Aβ42 aggregation
- Format: biochemical
- CONDITION INFO: measurement M14; source data, Ab alone and No Ab as controls
REPORTED ENDPOINT: Th-T assay plate reading, mean of three wells (Supplementary Fig. 47)

Supply Th-T assay plate reading, mean of three wells (Supplementary Fig. 47) value. Item: "C=C1CC[C@@H]2[C@](C)(CC[C@H]3O[C@H](C=C(C)C)C[C@@]23C)[C@@H]1Cc1c(OC)oc(CO)c(C(=O)OC)c1=O"
0.1925

# return recorded Th-T assay plate reading, mean of three wells (Supplementary Fig. 47) for entry C=C1CCC2C(C)(CCC=C(C)C)C(O)CCC2(C)C1Cc1c(OC)oc(C)c(C(=O)OC)c1=O (stereo not drawn)
0.6968

Look up and report measured Th-T assay plate reading, mean of three wells (Supplementary Fig. 47) for this entry: "C=C1CC[C@H]2[C@]3(C)C[C@@H](C=C(C)C)O[C@H]3CC[C@]2(C)[C@@H]1Cc1c(OC)oc(CO)c(C)c1=O"
2.461

Look up Th-T assay plate reading, mean of three wells (Supplementary Fig. 47) of "C=C1CC[C@@H]2[C@](C)(CC[C@H]3O[C@H](C=C(C)C)C[C@@]23C)[C@@H]1Cc1c(O)c(C)c(C)oc1=O" and report it.
1.025

Report Th-T assay plate reading, mean of three wells (Supplementary Fig. 47), nothing else, for this molecule: "C=C1CC[C@H]2[C@]3(C)C[C@H](C=C(C)C)O[C@H]3CC[C@]2(C)[C@@H]1Cc1c(OC)oc(C)c(C)c1=O"
3.254

Please look at this molecule and report its Th-T assay plate reading, mean of three wells (Supplementary Fig. 47): C=C1CCC2C(C)(CC(=O)C=C(C)C)C(O)CCC2(C)C1Cc1c(OC)oc(C)c(C)c1=O (stereo not drawn)
1.723
